What viability, T/C was measured for each of the following?
- Tested on: NCI-H211 complex spheroid viability
- procedure.text: Anticancer human tumor NCI-H211 cell line growth inhibition [LSD1];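 note: luminescent viability read after seven days of drug exposure; 100% = DMSO vehicle control viability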
- test.parameters: second compound 0.1 µM; first compound 0.316 µM; stronger effect = lower value
Write the answer as a number in %, unit excluded.

// query Given the molecule CC1(C)CCC(CN2CCN(c3ccc(C(=O)NS(=O)(=O)c4ccc(NCC5CCOCC5)c([N+](=O)[O-])c4)c(Oc4cnc5[nH]ccc5c4)c3)CC2)=C(c2ccc(Cl)cc2)C1 + NC1CC1c1ccc(-c2cccc(O)c2)cc1 , what is its reported viability, T/C?
// result 35

// query Also need COc1cc(Nc2ncc3c(n2)-c2ccc(Cl)cc2C(c2c(F)cccc2OC)=NC3)ccc1C(=O)O + NC1CC1c1ccc(-c2cccc(O)c2)cc1 , thanks.
// result 4.66

// query Also need CC1(C)CCC(CN2CCN(c3ccc(C(=O)NS(=O)(=O)c4ccc(NCC5CCOCC5)c([N+](=O)[O-])c4)c(Oc4cnc5[nH]ccc5c4)c3)CC2)=C(c2ccc(Cl)cc2)C1 + NC1CCC(NC2CC2c2ccccc2)CC1 , thanks.
// result 73.5
